Test system: Listeria innocua 166
Experiment: Experiment 2: octanoate esterase substrates with different Indoxyl-based chromogenic markers
Format: cell-based
Details: IT 24 h, 37° C., substrate 250 mg/l

Compound | C (color of the colonies)
CCCCCCCC(=O)Oc1c[nH]c2ccc(Br)cc12 [Blue-C8, 5-Bromo-3-indolyl octanoate] | gray
CCCCCCCC(=O)Oc1c[nH]c2cc(Cl)ccc12 [Pink-C8, 6-Chloro-3-indolyl octanoate] | —

====

Test system: Listeria monocytogenes 092
Test: Experiment 2: octanoate esterase substrates with different Indoxyl-based chromogenic markers
Type: cell-based
Details: IT 48 h, 37° C., substrate 250 mg/l
Method: In Table 1 above, as in the following Tables, C represents the color of the colonies after incubation, I represents the intensity of the color, and the symbol “-” corresponds to the absence of color or intensity; finally, IT defines the incubation time. It should be noted that the intensity of the color is scored on an arbitrary scale but one which is consistent for all the biological specimens and media tested. This scale is valid for this experiment as well as all those that follow. […]

Molecule | Tested target | C (color of the colonies)
CCCCCCCC(=O)Oc1c[nH]c2ccc(Br)cc12 [Blue-C8, 5-Bromo-3-indolyl octanoate] | Listeria monocytogenes 092 | gray
CCCCCCCC(=O)Oc1c[nH]c2cc(Cl)ccc12 [Pink-C8, 6-Chloro-3-indolyl octanoate] | Listeria monocytogenes 092 | pink
